Values were extracted from patent US7842294B2.

Target: HLA-A2 (Homo sapiens, UniProt P04439, D140Y/D185E/D98H/E176V/E277Q/G131W/G231S/I119V/I121R/I166T/I218V/L300P/L318F/N151K/N90K/P208A/P217A/Q86G/Q94H/R138H/R169H/T345S)
Construct: empty HLA molecules released upon cell lysis, from the TAP-deficient cell line T2; endogenous in cells; host or cells: T2 (TAP-deficient cell line), metabolically labelled with [35S]-methionine and lysed
Experiment: Assembly assay for peptide binding to MHC class I molecules (stabilisation of HLA from TAP-deficient T2 cells)
Settings: C50 (concentration of the peptide required for half maximal binding to HLA-A2), recovery of HLA-A2 measured at 50, 5, 0.5, 0.05 μM peptide
Ends that are not written are not given here.

>  <sequenceChain>
AAAGPALSPV [bcl80]

>  <EC50 [µM]>
36

$$$$
>  <sequenceChain>
KTLLSLALV [bcl218]

>  <EC50 [µM]>
2

$$$$

###

Target: HLA-A2 (Homo sapiens, UniProt P04439, D140Y/D185E/D98H/E176V/E277Q/G131W/G231S/I119V/I121R/I166T/I218V/L300P/L318F/N151K/N90K/P208A/P217A/Q86G/Q94H/R138H/R169H/T345S)
Construct: empty HLA molecules released upon cell lysis, from the TAP-deficient cell line T2; endogenous in cells; host or cells: T2 (TAP-deficient cell line), metabolically labelled with [35S]-methionine and lysed
Experiment: Assembly assay for peptide binding to MHC class I molecules (stabilisation of HLA from TAP-deficient T2 cells)
Conditions: recovery of HLA-A2 measured at 50, 5, 0.5, 0.05 μM peptide; read-out: C50 (concentration of the peptide required for half maximal binding to HLA-A2)
Experimental: This assembly assay is carried out as described previously (2), and it is based on stabilisation of the HLA molecule after loading of peptide to the peptide transporter deficient cell line T2. Subsequently, correctly folded stable HLA heavy chains are immunoprecipitated using conformation dependent antibodies and the peptide binding is quantitated. […]
Ends that are not written are not given here.

>  <sequenceChain>
SLALVGACI [bcl222]

>  <readingUnit>
nM

>  <EC50>
1000

$$$$
>  <sequenceChain>
ALVGACITL [Bcl224]

>  <readingUnit>
nM

>  <EC50>
700

$$$$
>  <sequenceChain>
FTARGRFATV [bcl124]

>  <readingUnit>
nM

>  <EC50>
1000

$$$$
>  <sequenceChain>
LLSLALVGA [bcl220]

>  <readingUnit>
nM

>  <EC50>
1000

$$$$
>  <sequenceChain>
NIALWMTEYL [bcl172]

>  <readingUnit>
nM

>  <EC50>
2000

$$$$
>  <sequenceChain>
WLSLKTLLSL [bcl214]

>  <readingUnit>
nM

>  <EC50>
3000

$$$$
>  <sequenceChain>
ALSPVPPVV [Bcl85]

>  <readingUnit>
nM

>  <EC50>
1000

$$$$
>  <sequenceChain>
PLFDFSWLSL [bcl208]

>  <readingUnit>
nM

>  <EC50>
7000

$$$$

###

Tested on: peptide epitope-specific interferon-γ releasing effector cells in PBL
Assay: IFN-γ ELISPOT on PBL stimulated once in vitro with peptide
Assay type: cell-based, human
Settings: PBL from 15 HLA-A2 positive breast cancer patients
Ends that are not written are not given here.
attributeMeasured: patients with spontaneous CTL response (%)

>  <sequenceChain>
YLNRHLHTWI [bcl180]

>  <testedTarget>
peptide epitope-specific interferon-γ releasing effector cells in PBL

>  <recordedResult>
≈ 25%

$$$$
>  <sequenceChain>
WLSLKTLLSL [bcl214]

>  <testedTarget>
peptide epitope-specific interferon-γ releasing effector cells in PBL

>  <recordedResult>
≈ 75%

$$$$
>  <sequenceChain>
NIALWMTEYL [bcl172]

>  <testedTarget>
peptide epitope-specific interferon-γ releasing effector cells in PBL

>  <recordedResult>
50%

$$$$
>  <sequenceChain>
PLFDFSWLSL [bcl208]

>  <testedTarget>
peptide epitope-specific interferon-γ releasing effector cells in PBL

>  <recordedResult>
≈ 80%

$$$$
